Provide the recorded % activity, Elastase for the entries that follow.
target: UniProt P00772; test: Esterase assay, elastase; assay type: biochemical; conditions: Z-AX-OMe substrate; normalised to alanine
Sequence (P00772 27-266): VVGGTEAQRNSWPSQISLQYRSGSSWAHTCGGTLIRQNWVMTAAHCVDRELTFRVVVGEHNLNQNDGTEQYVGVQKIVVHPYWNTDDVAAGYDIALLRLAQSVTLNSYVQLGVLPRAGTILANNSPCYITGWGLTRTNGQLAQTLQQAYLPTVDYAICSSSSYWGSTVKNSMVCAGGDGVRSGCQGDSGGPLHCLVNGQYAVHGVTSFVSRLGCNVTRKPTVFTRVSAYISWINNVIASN
Where a SMILES comes first, the peptide text is derived from it. The star is where a group is joined. Cbz = O=C(OCc1ccccc1)*
Numbers only, in %.

COC(=O)CNC(=O)[C@H](C)NC(=O)OCc1ccccc1 [Gly] (Cbz-Ala-Gly-OMe): 0
COC(=O)[C@H](CC(C)C)NC(=O)[C@H](C)NC(=O)OCc1ccccc1 [Leu] (Cbz-Ala-Leu-OMe): 21.7
COC(=O)[C@H](CCCNC(=N)N)NC(=O)[C@H](C)NC(=O)OCc1ccccc1 [Arg, Z-Ala-Arg-OMe] (Cbz-Ala-Arg-OMe): 0
COC(=O)[C@H](Cc1c[nH]c2ccccc12)NC(=O)[C@H](C)NC(=O)OCc1ccccc1 [Trp] (Cbz-Ala-Trp-OMe): 0
COC(=O)[C@H](CC(=O)O)NC(=O)[C@H](C)NC(=O)OCc1ccccc1 [Asp] (Cbz-Ala-Asp-OMe): 0

Dear colleague, could you send me % activity, Elastase for each of the items below? Thanks.
1. COC(=O)[C@H](CCCCN)NC(=O)[C@H](C)NC(=O)OCc1ccccc1 [Lys] (Cbz-Ala-Lys-OMe)
2. COC(=O)[C@H](Cc1ccc(O)cc1)NC(=O)[C@H](C)NC(=O)OCc1ccccc1 [Tyr, Z-Ala-Tyr-OMe] (Cbz-Ala-Tyr-OMe)
3. COC(=O)[C@H](C)NC(=O)[C@H](C)NC(=O)OCc1ccccc1 [Ala] (Cbz-Ala-Ala-OMe)
4. COC(=O)[C@@H](NC(=O)[C@H](C)NC(=O)OCc1ccccc1)C(C)C [Val] (Cbz-Ala-Val-OMe)

1: 0; 2: 0; 3: 100; 4: 13.4

Dear colleague, could you send me % activity, Elastase for each of the items below? Thanks.
1. COC(=O)[C@H](CS)NC(=O)[C@H](C)NC(=O)OCc1ccccc1 [Cys] (Cbz-Ala-Cys-OMe)
2. CC[C@H](C)[C@H](NC(=O)[C@H](C)NC(=O)OCc1ccccc1)C(=O)OC [Ile] (Cbz-Ala-Ile-OMe)
3. COC(=O)[C@@H](NC(=O)[C@H](C)NC(=O)OCc1ccccc1)[C@@H](C)O [Thr] (Cbz-Ala-Thr-OMe)
4. COC(=O)[C@H](Cc1ccccc1)NC(=O)[C@H](C)NC(=O)OCc1ccccc1 [Phe]
5. COC(=O)[C@H](CCC(=O)O)NC(=O)[C@H](C)NC(=O)OCc1ccccc1 [Glu] (Cbz-Ala-Glu-OMe)
6. COC(=O)[C@H](CC(N)=O)NC(=O)[C@H](C)NC(=O)OCc1ccccc1 [Asn] (Cbz-Ala-Asn-OMe)

1. 548.4
2. 11.0
3. 19.7
4. 0
5. 0
6. 0

###

Provide the recorded % activity, α-Lytic protease for the entries that follow.
biological target: UniProt:P00778; assay: Esterase assay, α-lytic protease; format: biochemical; settings: Z-AX-OMe substrate; normalised to alanine
Sequence (P00778 25-397 limits assumed): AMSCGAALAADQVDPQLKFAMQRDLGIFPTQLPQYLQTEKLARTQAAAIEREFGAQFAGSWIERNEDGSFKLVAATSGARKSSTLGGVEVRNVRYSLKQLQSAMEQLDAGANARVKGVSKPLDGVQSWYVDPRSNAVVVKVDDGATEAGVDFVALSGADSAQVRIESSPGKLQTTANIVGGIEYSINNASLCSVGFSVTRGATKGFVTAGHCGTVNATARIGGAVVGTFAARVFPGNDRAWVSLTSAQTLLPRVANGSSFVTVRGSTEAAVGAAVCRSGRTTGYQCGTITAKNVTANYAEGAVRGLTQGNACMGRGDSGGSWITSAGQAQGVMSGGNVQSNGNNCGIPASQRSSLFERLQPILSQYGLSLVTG
Where a SMILES comes first, the peptide text is derived from it. The star is where a group is joined. Cbz = O=C(OCc1ccccc1)*
Numbers only, in %.

# count of solved cases: 5
COC(=O)[C@@H](NC(=O)[C@H](C)NC(=O)OCc1ccccc1)C(C)C [Val] (Cbz-Ala-Val-OMe): 21.0
COC(=O)[C@H](Cc1ccccc1)NC(=O)[C@H](C)NC(=O)OCc1ccccc1: 0
COC(=O)[C@H](CCCCN)NC(=O)[C@H](C)NC(=O)OCc1ccccc1 [Lys] (Cbz-Ala-Lys-OMe): 0
COC(=O)[C@H](CO)NC(=O)[C@H](C)NC(=O)OCc1ccccc1 [Ser] (Cbz-Ala-Ser-OMe): 11.3
COC(=O)[C@H](CCSC)NC(=O)[C@H](C)NC(=O)OCc1ccccc1 [Met] (Cbz-Ala-Met-OMe): 32.3

Dear colleague, could you send me % activity, α-Lytic protease for each of the items below? Thanks.
1. COC(=O)[C@H](CS)NC(=O)[C@H](C)NC(=O)OCc1ccccc1 [Cys] (Cbz-Ala-Cys-OMe)
2. COC(=O)[C@H](Cc1c[nH]c2ccccc12)NC(=O)[C@H](C)NC(=O)OCc1ccccc1 [Trp] (Cbz-Ala-Trp-OMe)
3. COC(=O)[C@H](CC(C)C)NC(=O)[C@H](C)NC(=O)OCc1ccccc1 [Leu] (Cbz-Ala-Leu-OMe)

137.1
0
0
